Reported Percent Effect values are given for each entry in this list.
# System: Wolbachia pipientis
# method summary: Anti-Wolbachia Cell-Based Screen
# Format: functional
# Parameters: scale not given: in the data most compounds retested in dose-response had high values
# condition description: 5 µM
The campaign covered roughly 48,000 compounds. About 13,000 (27%) showed an effect of 50% or more. The list shows a part of the results.
measured quantity: Percent Effect (%)

| molecule | measured quantity | reported value |
| --- | --- | --- |
| CS(=O)(=O)N1CCCC12CCCN(C(=O)c1cc(F)cc(F)c1)C2 (stereo unspecified) | Percent Effect | 3.882 |
| CN1C(=O)CCCC12CCCN(C(=O)c1cccc(C(F)(F)F)c1)C2 (stereo unspecified) | Percent Effect | 112.4 |
| CN1C(=O)CCCC12CCCN(C(=O)c1ccc3c(c1)OCO3)C2 (stereo unspecified) | Percent Effect | 103.5 |
| CN1C(=O)CCCC12CCCN(C(=O)c1cc(F)cc(F)c1)C2 (stereo unspecified) | Percent Effect | 108.3 |
| O=C(c1ccnc(N2CCOC(C(F)(F)F)C2)c1)N1CCOCC1 (stereo unspecified) | Percent Effect | 126.7 |
| CS(=O)(=O)N1CCCC12CCCN(C(=O)c1ccc3c(c1)OCO3)C2 (stereo unspecified) | Percent Effect | -9.352 |
| O=C(c1ccnc(N2CCOC(c3ccc(Cl)cc3)C2)c1)N1CCCC1 (stereo unspecified) | Percent Effect | 5.063 |
| Cn1ncc2cnn(CC(O)COc3cccc4[nH]ccc34)c2c1=O (stereo unspecified) | Percent Effect | 26.41 |
| Cc1cc(C)cc(C(=O)N2CCCC3(CCCC(=O)N3C)C2)c1 (stereo unspecified) | Percent Effect | 101 |
| O=C(c1ccc(-c2nc[nH]n2)cc1)N1CCOC(C(F)(F)F)C1 (stereo unspecified) | Percent Effect | 16.44 |
| CN1C[C@H]2CN(C(=O)c3ccc4c(c3)OCO4)CCN2C1=O | Percent Effect | 3.165 |

====

Reported Percent Effect values are given for each entry in this list.
# Tested on: Wolbachia pipientis
# method summary: Anti-Wolbachia Cell-Based Screen
# Type: functional
# Set-up: scale not given: in the data most compounds retested in dose-response had high values
# condition description: 5 µM
Screen size: about 48,000 compounds; about 13,000 (27%) showed an effect of 50% or more. Some of the results follow.

| compound | tgt | Percent Effect, % |
| --- | --- | --- |
| CC(C)Cc1ncc2c(n1)CN(c1nccc(NC(C)C)n1)C2 | Wolbachia pipientis | -6.813 |
| O=C(NC1CCCN(CCc2ccccc2)C1)c1cnccn1 (stereo unspecified) | Wolbachia pipientis | 115.1 |
| CCn1nc(C)cc1C(=O)N1CCCN(CCCc2ccccc2)CC1 | Wolbachia pipientis | 0.5946 |
| O=C(NC1CCCN(c2ccc(OC(F)F)cc2)C1)c1cnccn1 (stereo unspecified) | Wolbachia pipientis | -2.478 |
| CCN1CCN(C(=O)c2cc(NC(=O)c3ccccc3)n(C)n2)CC1 | Wolbachia pipientis | 93.08 |
| Cc1nc(N2CCCC2)nc(C)c1NC(=O)c1ccco1 | Wolbachia pipientis | 8.53 |

====

# System: Wolbachia pipientis
# method summary: Anti-Wolbachia Cell-Based Screen
# Assay type: functional
# Design: scale not given: in the data most compounds retested in dose-response had high values
# condition description: 5 µM
Out of some 48,000 compounds screened, about 13,000 (27%) showed an effect of 50% or more. Some of the results follow.

| compound | tgt | Percent Effect, % |
| --- | --- | --- |
| Cc1cc(NC(=O)CNC2CCCN(c3cccnn3)C2)on1 (configuration not stated) | Wolbachia pipientis | 92.8 |
| COCCCN(C)Cc1nc2c(cnn2C)c(=O)[nH]1 | Wolbachia pipientis | -7.298 |
| c1cnnc(N2CCCC(NCc3ccncc3)C2)c1 (configuration not stated) | Wolbachia pipientis | 0.6717 |
| Cc1cc(NC(=O)CN(C)C2CCCN(c3cccnn3)C2)on1 (configuration not stated) | Wolbachia pipientis | 99.52 |
| Cc1ccc(N2CCCC(N(C)Cc3cc(C)no3)C2)nn1 (configuration not stated) | Wolbachia pipientis | 1.683 |
| Cc1ccc(N2CCCC(NCC(=O)Nc3cc(C)no3)C2)nn1 (configuration not stated) | Wolbachia pipientis | 8.409 |
| O=C1OCCN1CCSc1nnnn1CC(F)(F)F | Wolbachia pipientis | -1.95 |
| CN(Cc1nnc(-c2ccco2)o1)Cc1nc2c(s1)CCCC2 | Wolbachia pipientis | -12.52 |
| c1cnc(Nc2cncc(C3CCCN(c4ncccn4)C3)n2)nc1 (configuration not stated) | Wolbachia pipientis | 144.2 |
| CCOCc1cncc2c1CCN(C(=O)c1cccc(C#N)c1)C2 | Wolbachia pipientis | 8.725 |
| c1cnc(Nc2cncc(C3CCCN(c4cnccn4)C3)n2)nc1 (configuration not stated) | Wolbachia pipientis | 136.5 |
| c1ccc(N2CCCC(c3nc(-c4cccnn4)no3)C2)nc1 (configuration not stated) | Wolbachia pipientis | -11.75 |
